# key: entry, value: protein stability index
assay: protein stability index of a GFP-peptide fusion (yeast GPS) (PSI 1-4); higher = more stable; sorted into four equal gates, so the index is relative within each strain; details: san1∆
Just the number, please, no unit after it.

INSERT INTO measurements (residue_string, value) VALUES
  ('VSETPKRIKGLEFSALS [RPO31]', 3.01),
  ('LPVKEFQIIDTLLPGLQ [RPS2]', 1.95),
  ('IEKWTANLLPARQFGYV [RPS22A]', 1.8),
  ('PMPIITFLSEWGMEPLE [RPB2]', 2.51),
  ('SKLKLKNLLRKNLSIDE [ECM29]', 1.46);

-- ask Answer with the recorded protein stability index for the sequence listed here: LKGLNGFPSAPQPLFME [YMR153W/NUP53]
-- reply 2.85

-- ask Using known records, supply protein stability index for KDNARIYQVPEKDLEHW [POP1]
-- reply 2.26

-- ask Return protein stability index (reported value) for this sequence: GNDFKFNYQGDELVLNF [REC8]
-- reply 3.34

-- ask # return recorded protein stability index for entry FLQHPDEEYPVKVKVSY [PRP8]
-- reply 3.21

-- ask Report measured protein stability index; entry is AASFKKLYKTPIPIPAF [PRE10]
-- reply 2.75

-- ask Please look at this sequence and report its protein stability index: VPSPTGEYVKEPEWVLE [RPO21]
-- reply 2.85

----------
We begin with a simple list: items and their reported protein stability index.
experiment: protein stability index of a GFP-peptide fusion (yeast GPS) (PSI 1-4); higher = more stable; sorted into four equal gates, so the index is relative within each strain; settings: doa10∆
Respond using a number only.

INSERT INTO results (residue_string, reported_metric, value) VALUES
  ('KLVTYIVKFKQKEEGRS [YLR335W/NUP2]', 'protein stability index', 3.1),
  ('TVINEQQREAVRQLYKG [RPL35A]', 'protein stability index', 3.44),
  ('IDLLLLGQERATDLAGP [PRP8]', 'protein stability index', 2.47),
  ('FDIYNRDRKLITDKGTV [YJL039C/NUP192]', 'protein stability index', 3.18),
  ('RPDIVHTVFTSVNKNKR [RPL4A]', 'protein stability index', 1.26),
  ('SAKMILLSDPTITIKSY [PRP8]', 'protein stability index', 2.23),
  ('RLTFKPWVVYLQILAML [YMR129W/POM152]', 'protein stability index', 1.23),
  ('KRLLGTAFKSSPFGGSS [RPS23A]', 'protein stability index', 2.22);

-- ask Identify measured protein stability index corresponding to KTKKEKGPNEEEKKKEH [RPN2]
-- reply 3.05

-- ask Please report protein stability index for the following sequence: TNDDSIKNLTVQLSPSN [RGR1]
-- reply 2.8

-- ask Tell us which protein stability index value is on record for HLSHPGTNKDMILKLVC [ECM29]
-- reply 1.52

-- ask Consider the sequence EVYTKTIEVLDEVITEG [POP7] and give its recorded protein stability index.
-- reply 2.84

-- ask For the sequence TALDAEGAARGTSVYLV [DIS3] , give its measured protein stability index value.
-- reply 2.24

-- ask Dear colleague, please send me the reported protein stability index for GRICRPLIIVSDGQSRV [RET1] when you can.
-- reply 2.06

-- ask Name the recorded protein stability index of the item NKVSYYGNPTSKESWRY [RTT102] in your answer.
-- reply 3.23

-- ask Please list protein stability index recorded for the sequence MVAYSPIIATYGNRAEQ [SRP68]
-- reply 2.18

-- ask Supply measured protein stability index of DEDLLDTQTFSVLLQQL [YGL172W/NUP49] in your reply.
-- reply 2.93

-- ask Determine its reported protein stability index: NASQMGNTGSGGYDNAW [RPB3]
-- reply 3.36

-- ask Indicate its recorded protein stability index; the sequence in question is HGLILELQKIWQIEEAG [SRB5]
-- reply 2.86

-- ask State its protein stability index for this sequence: IIYPRSQTTLVQFGLNE [ARP9]
-- reply 3.04
